target: FAD-linked sulfhydryl oxidase ALR (Homo sapiens, UniProt P55789); assay: ALR-catalysed DTT oxidation blockers – biochemical, H2O2 detection, luminescence, cherry-pick, dose response (AID 493248)
Sequence (P55789 whole entry): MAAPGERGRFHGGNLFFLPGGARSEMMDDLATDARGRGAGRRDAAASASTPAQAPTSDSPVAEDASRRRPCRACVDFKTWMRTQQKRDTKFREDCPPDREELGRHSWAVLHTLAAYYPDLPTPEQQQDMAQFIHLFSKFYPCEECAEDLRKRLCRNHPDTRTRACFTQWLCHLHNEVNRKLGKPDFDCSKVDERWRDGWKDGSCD
Active and inactive are the calls of the source.
Catalogue of AC50 values

Lookup result for `Cc1ccc(NC(=NO)c2nonc2N)cc1` ; measured AC50: 19.3 µM (active)

Lookup result for `CN(c1ccccc1C(=O)N1CCN(c2ccccc2)CC1)S(C)(=O)=O` ; measured AC50: 2.93 µM (active)

Lookup result for `O=C(c1ccco1)N1CCN=C1SCc1cccc(Cl)c1` ; measured AC50: 18.1 µM (active)

Lookup result for `Oc1[nH]c2ccccc2c1C1=NCCCC1` ; measured AC50: 0.325 µM (active)

Lookup result for `Cc1nn(Cc2ccc(Cl)cc2)c(C)c1N` ; measured AC50: 28.5 µM (active)

Lookup result for `O=C(O)c1ccc(/N=c2\oc3cc(O)ccc3cc2C(=O)NCc2ccccc2)cc1` ; measured AC50: 1.71 µM (active)

###

assay: NIH3T3 cell viability loss – ATP luminescence, mouse fibroblasts, counter-screen, dose response (AID 2010); format: functional, cell-based;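 further: cells exposed to compound for about 90 hours before reading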
The source made the active and inactive calls.
endpoint_label: EC50

Example molecules with recorded EC50:
In [3]: df
Out[3]:
                                   molecule               reading
0  COc1ccc(-c2nnc(NC(=O)c3ccc(S(=O)(=O)N4CCCc5ccccc54)cc3)o2)cc1      5.82 µM (active)
1                Cc1ccc(CN(C)CCc2ccccn2)cc1  > 60 µM (not active)
2  CC(C)(C)N1C(=O)[C@H]2[C@@H](c3ccc(Br)cc3)N3C(=O)N(c4cccc(Br)c4)C(=O)[C@@]3(Cc3ccccc3)[C@H]2C1=O  > 60 µM (not active)
3  CN(Cc1ccccc1)C(=O)C1CCCN(Cc2cccc(Cl)c2)C1 (configuration not stated)  > 60 µM (not active)
4  Cc1c(CN2CCC(CO)(Cc3cccc(C(F)(F)F)c3)CC2)c2ccccc2n1C  > 60 µM (not active)
5  COC(=O)Cc1c[nH]c2cccc(OCC(O)CN(Cc3ccc([N+](=O)[O-])cc3)C(C)(C)C)c12 (configuration not stated)  > 60 µM (not active)

The record that follows has no EC50 shown yet.
Lookup result for `COC(=O)c1c(C)[nH]c(O)c1/C=N/c1ccc(C(C)C)cc1` ; measured EC50: > 60 µM (inconclusive)

###

target: Photoreceptor-specific nuclear receptor (Homo sapiens); format: functional, cell-based;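 further: CHO-S cells with Gal4-NCOR and VP16-NR2E3 two-hybrid luciferase reporter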
Sequence (Q9Y5X4 whole entry, the tested form may be a part): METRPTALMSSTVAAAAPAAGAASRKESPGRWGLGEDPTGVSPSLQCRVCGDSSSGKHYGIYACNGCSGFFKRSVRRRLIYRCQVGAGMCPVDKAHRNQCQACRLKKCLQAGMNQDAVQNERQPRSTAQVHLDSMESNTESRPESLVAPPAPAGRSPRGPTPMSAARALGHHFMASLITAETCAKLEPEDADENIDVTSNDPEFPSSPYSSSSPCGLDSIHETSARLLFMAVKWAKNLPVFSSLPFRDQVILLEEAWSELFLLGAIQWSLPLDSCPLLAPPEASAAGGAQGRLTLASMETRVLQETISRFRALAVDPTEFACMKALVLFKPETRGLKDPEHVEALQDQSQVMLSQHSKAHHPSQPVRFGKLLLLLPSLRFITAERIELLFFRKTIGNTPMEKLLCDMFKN
Calls of active or inactive are those of the source.
Catalogue of IC50 values

Example compounds with recorded IC50:
In [3]: df
Out[3]:
                                   compound                           subject_of_test  endpoint_label            reading
0  COc1cccc2c1C(=O)c1c(O)c3c(c(O)c1C2=O)CC(O)(C(C)=O)CC3OC1CC(N(C)C)C(O)C(C)O1 (stereo not given)  Photoreceptor-specific nuclear receptor (Homo sapiens)            IC50   3.82 µM (active)
1  CCCc1cc(=O)n2nc(N3CCC(C(=O)N4CCN(c5ccc(OC)cc5)CC4)CC3)sc2n1  Photoreceptor-specific nuclear receptor (Homo sapiens)            IC50   4.09 µM (active)
2  O=C(CSc1nnnn1-c1ccc(O)cc1)Nc1ccc(N2CCOCC2)c(Cl)c1  Photoreceptor-specific nuclear receptor (Homo sapiens)            IC50  0.488 µM (active)
3  COCCn1c(C)cc(C(=O)COc2ccc(C)nc2[N+](=O)[O-])c1C  Photoreceptor-specific nuclear receptor (Homo sapiens)            IC50   5.55 µM (active)

The record that follows has no IC50 shown yet.
Lookup result for `CC(C)N1CCc2c(sc(NC(=O)c3ccc([N+](=O)[O-])o3)c2C(N)=O)C1` ; measured IC50: 4.58 µM (active)
